Assay: yeast display, Sf9 membrane polyspecificity reagent, FACS + sequencing; frameworks hold sequencing errors
Observation type: polyreactivity (PSR sort gate)

Sequence content	Result
QVQLVESGGGLVQAGGSLRLSCAASGRIFPAYAMGWYRQAPGTERELVASIRRGGITYADSVKGRFTISRDNAKNTVYLQMNSLKPEDTAVYYCNADYRGWGYHMDYWGQGTQVTVSS	low polyreactivity
QVKLVESGGGLVQAGGSLRLRCAASGSIFRFYVMGWYRQAPGKERELVAAISSGGSTDYADSVKGRFTISRDNAKNTVYLQMYSLKPEDTAVYYCGARVRTVRNTYYSWGQGTQVTVSS	high polyreactivity
QVQLVESGGGLVQAGASLRLSCAASGFIFRHYAMGWYRQAPGKARELVAVINWSGSSTYYADSVKGRFTISRDNAKNTVYLQMNSLKPEDTAVYYCAVRSLRVDKYGYWGQGTQVTVSS	high polyreactivity
QVQLVESGGGLVQAGGSLRLSCAASGLIFYRYAMGRYRQAPRKERELVAAISSSGGSTYYADSVKGRFTISRDNAKNTVYLQMNSLKPEDTAVYYCSARPSTHGYKYGYWGQGTQVTVSS	high polyreactivity
QVQLVESGGGLVQAGGSLRLSCAASGFTIERYAMGWYRQAPGKERELVAVISTSGGSTYYADSVKGRFTISRDNAKNTVYLQMNSLKPEDTAVYYCAKDGSSRGDYHFGWGYYYWGQGSQVTVSS	low polyreactivity
